Target: HLA-B0801 (human)
Test: competition with 125I-labelled probe peptide, purified HLA
Measurement kind: pKi
// pKi: -log10(molar conc.)

### Prompt Recall and state the measured pKi for YLKGSSGGPL (modifications not checked) […] .
### Response 8.00
